System: Mythimna separata
Assay text: Stomach toxicity against fourth-instar larval stage of Mythimna separata (Oriental armyworm) in compound-pretreated corn leaves assessed as mortality at 600 mg/kg at 25 +/-1 degC after 4 days
Assay type: functional
Measured parameter: mortality at 600 mg/kg (%)
Report only the number, with the unit % understood.

Structure smiles string | Measurement
Cc1cc(C)c(C2=C(OC(=O)C(=O)N3CCCC3)C3(CCCC3)OC2=O)c(C)c1 | 40
Cc1cc(C)c(C2=C(OC(=O)C(=O)N(C)c3ccccc3)C3(CCCC3)OC2=O)c(C)c1 | 80
C#CCOC(=O)C(=O)OC1=C(c2c(C)cc(C)cc2C)C(=O)OC12CCCC2 | 50

Q. Reported mortality at 600 mg/kg, compound `CCN(C(=O)C(=O)OC1=C(c2c(C)cc(C)cc2C)C(=O)OC12CCCC2)c1ccc(C)cc1C` : ____
A. 30
